Assay: inhibitors of Toxoplasma growth in IFN-γ-primed HeLa – cell-based, ME49Luc, luciferase, 72 h, dose response (AID 1259418)
Details: T. gondii ME49Luc in IFN-y HeLa, hits give low values, -100% = high-dose IFN-γ control wells; at 19.5 µM unless noted
About 840 (25%) of roughly 3,400 compounds were called active. Not shown: some 11% with an inconclusive outcome. The list is a sample of the results. Measured potencies and affinities stand elsewhere.
The following compounds are shown together with reported max activity values.
quantity-name: max activity

| compound | quantity-name | reading |
| --- | --- | --- |
| COc1ccc(N2CCN(CCNc3nc(-c4ccc(Cl)cc4)nc4ccccc34)CC2)cc1 | max activity | 22% [at 0.68 µM] (inactive) |
| COc1ccc2c(c1)NC1(CCN(C(=O)Cc3ccc(F)cc3)CC1)c1cccn1-2 | max activity | 12.9% [at 0.35 µM] (inactive) |
| CCCN1CCN(CCCNc2nc(-c3ccc(Cl)cc3)nc3ccccc23)CC1 | max activity | -50.1% [at 1.35 µM] (inactive) |
| Cc1nc(-c2ccc(F)cc2)sc1-c1ccc(SCc2ccc(Cl)cc2Cl)nn1 | max activity | -14.7% [at 5 µM] (inactive) |
| COc1ccc(NC(=O)N2CCc3nc(-c4ccccc4)sc3C2)c(OC)c1 | max activity | 19.6% [at 10 µM] (inactive) |
| O=C1CC2C(CCN2Cc2ccc(F)cc2)N1CCN1CCOCC1 (stereo not given) | max activity | 15.6% [at 10 µM] (inactive) |
| COc1ccc(-c2nc(NCCCN3CCN(c4cc(C)ccc4C)CC3)c3ccccc3n2)cc1 | max activity | 21.7% (inactive) |
| Cc1cccc(CNC2=NCCNC23CCN(S(=O)(=O)c2ccc4c(c2)CCCC4)CC3)c1 | max activity | 20.3% [at 10 µM] (inactive) |
| COc1ccc(-c2nc(NCCCN3CCCC3)c3ccccc3n2)cc1 | max activity | 15.7% (inactive) |
| COc1ccc(-c2nc(NCCCN3CCN(c4ccc(F)cc4)CC3)c3ccccc3n2)cc1 | max activity | -17.2% [at 0.35 µM] (inactive) |

###

Test: inhibitors of Toxoplasma growth in IFN-γ-primed HeLa – cell-based, ME49Luc, luciferase, 72 h, dose response (AID 1259418)
Settings: T. gondii ME49Luc in IFN-y HeLa, hits give low values, -100% = high-dose IFN-γ control wells; at 19.5 µM unless noted
Out of some 3,400 compounds screened, about 840 (25%) were called active. Inconclusive results (about 11%) are left out. The list is a sample of the results. Potency and affinity values are given separately.

| molecule | max activity |
| --- | --- |
| COc1ccc(-c2nc(CN(c3ccc(OC)cc3)S(=O)(=O)c3ccccc3)c(C)o2)cc1 | 21.2% [at 5 µM] (inactive) |
| COc1ccc(N(Cc2nc(-c3ccc(C)cc3)oc2C)S(=O)(=O)c2ccc(OC)cc2)cc1 | 6.72% [at 1.35 µM] (inactive) |
| O=C(c1cccc(F)c1)N1CCCCN2[C@H](C1)[C@H](c1ccc(C#CC3(O)CCCC3)cc1)[C@@H]2CO | -13.9% [at 2.6 µM] (inactive) |
| COc1ccc(-c2nc(CN(c3ccc(OC)cc3)S(=O)(=O)c3ccc(C)cc3)c(C)o2)cc1 | -10.7% [at 0.16 µM] (inactive) |
| COc1cccc(CNC2=NCCNC23CCN(S(=O)(=O)c2ccc(C(C)C)cc2)CC3)c1 | -13.5% [at 0.35 µM] (inactive) |
| Cc1oc(-c2ccc(OC(C)C)cc2)nc1CN(c1ccccc1)S(=O)(=O)c1ccccc1 | 5.29% (inactive) |
| O=C(c1cccc(F)c1)N1CCCCN2[C@H](CO)[C@H](c3ccc(C#CC4(O)CCCC4)cc3)[C@H]2C1 | -28.8% [at 21 µM] (inactive) |
| Cc1oc(-c2ccccc2)nc1CN(c1ccccc1)S(=O)(=O)c1ccccc1 | 6.75% [at 2.6 µM] (inactive) |
| Cc1cccc(N2CCN(C(=O)c3ccc(-c4csc(C5CC5)n4)cc3)CC2)c1C | -9.59% [at 0.35 µM] (inactive) |

###

Assay: inhibitors of Toxoplasma growth in IFN-γ-primed HeLa – cell-based, ME49Luc, luciferase, 72 h, dose response (AID 1259418)
Conditions: T. gondii ME49Luc in IFN-y HeLa, hits give low values, -100% = high-dose IFN-γ control wells; at 19.5 µM unless noted
Out of some 3,400 compounds screened, about 840 (25%) were called active. Roughly 11% stayed inconclusive and do not appear here. Only a sample is shown. Entries with a potency or affinity are not part of this list.
compounds and their reported max activity
quantity-name: max activity

| compound | reading |
| --- | --- |
| CCCC#Cc1ccc([C@@H]2[C@H]3CN(C(=O)Nc4cccc(F)c4)CC(=O)N3[C@H]2CO)cc1 | 7.32% [at 0.16 µM] (inactive) |
| C/C=C/c1ccc([C@@H]2[C@@H](CO)N3C(=O)CN(C(=O)Nc4cccc(OC)c4)C[C@@H]23)cc1 | 27% [at 10 µM] (inactive) |
| CC(C)N1CCC2(CC1)CC(COCC1CC1)N(c1ncccn1)C2 (stereo not given) | 22.4% (inactive) |
| Cc1ccc(C)c(-c2coc(-c3ccc(NC(=O)C(C)C)cc3)n2)c1 | 14.2% (inactive) |
| O=C(COc1ccc(Br)cc1)Nc1cncc(-c2nc3ccccc3o2)c1 | 8.52% [at 0.16 µM] (inactive) |

###

Experiment: inhibitors of Toxoplasma growth in IFN-γ-primed HeLa – cell-based, ME49Luc, luciferase, 72 h, dose response (AID 1259418)
Details: T. gondii ME49Luc in IFN-y HeLa, hits give low values, -100% = high-dose IFN-γ control wells; at 19.5 µM unless noted
Screen size: about 3,400 compounds; about 840 (25%) were called active. Another 11% or so got no clear call; they are omitted. Only a sample is shown. Measured potencies and affinities stand elsewhere.

| compound | max activity |
| --- | --- |
| CCC(C(=O)N1CCC[C@@H]1C(=O)NCCc1csc(-c2ccccc2)n1)c1ccccc1 (some centres undefined) | 13.1% [at 2.6 µM] (inactive) |
| CCN(CCCNc1nc(-c2ccc(OC)cc2)nc2ccccc12)c1cccc(C)c1 | 21.1% (inactive) |
| CCOc1ccc(CC(=O)Nc2ccc(-c3nc(-c4ccccc4)co3)cc2)cc1OCC | 30.5% [at 10 µM] (inactive) |
| Cc1ccc(NC(=O)Nc2ccc(-c3nc(-c4cc(C)ccc4C)co3)cc2)cc1 | 5.44% [at 2.6 µM] (inactive) |
| Cc1ccc(-c2nc3c(s2)CN(S(=O)(=O)c2ccc(F)cc2)CC3)cc1 | 8.68% [at 10 µM] (inactive) |
| O=S(=O)(c1ccc(F)cc1)N1CCCCN2[C@H](C1)[C@H](c1ccc(-c3cncnc3)cc1)[C@@H]2CO | 22.1% [at 10 µM] (inactive) |
| CCOc1ccc(-c2nc(CN(c3ccc(C)cc3)S(=O)(=O)c3cccs3)c(C)o2)cc1OC | 101% [at 10 µM] (inactive) |
| COc1ccc(OC)c(NC(=O)Nc2ccc(-c3nc(-c4ccccc4)co3)cc2)c1 | 13.4% [at 0.68 µM] (inactive) |
| Cc1oc(-c2ccccc2)nc1Cn1nnc(-c2nc(-c3ccc(C(F)(F)F)cc3)no2)c1C | 47.1% (inactive) |

###

max activity for assorted molecules
Test: inhibitors of Toxoplasma growth in IFN-γ-primed HeLa – cell-based, ME49Luc, luciferase, 72 h, dose response (AID 1259418)
Conditions: T. gondii ME49Luc in IFN-y HeLa, hits give low values, -100% = high-dose IFN-γ control wells; at 19.5 µM unless noted
The campaign covered roughly 3,400 compounds. About 840 (25%) were called active. Not shown: some 11% with an inconclusive outcome. Not all results are given here. Results with a measured potency or affinity are listed apart.
quantity-name: max activity

| molecule | reading |
| --- | --- |
| Cc1ccc(-c2coc(-c3ccc(NS(=O)(=O)c4ccc(Cl)cc4)cc3)n2)cc1C | 40.5% [at 2.6 µM] (inactive) |
| CCOc1ccc(-c2nc(CN3CCN(C(=O)Nc4ccccc4OCC)CC3)c(C)o2)cc1 | 16% (inactive) |
| Cc1oc(-c2cccc(Cl)c2)nc1Cn1nnc(-c2nc(-c3ccncc3)no2)c1C | -5.43% [at 1.35 µM] (inactive) |
| O=S(=O)(c1ccc(F)cc1)N1C[C@@H]2N[C@H](C1)C2c1ccc(/C=C/c2ccccc2)cc1 (stereo not given in full) | 26.3% (inactive) |
| CCOc1ccc(NC(=O)N2CCN(Cc3nc(-c4ccc(OCC)cc4)oc3C)CC2)cc1 | 8.47% [at 5 µM] (inactive) |
| O=C(Cn1cccc1-c1nc(-c2ccc(Cl)cc2)cs1)N1CCC2(CC1)OCCO2 | -6.36% [at 10 µM] (inactive) |
| Cc1cccc(CSc2ccc(-c3sc(-c4ccc(F)cc4)nc3C)nn2)c1 | -11.3% [at 0.35 µM] (inactive) |
| CCC(=O)N1CCC2(CC1)Nc1cc(F)ccc1-n1cccc12 | 8.79% [at 0.68 µM] (inactive) |
| CCOc1ccc(-c2nc(CN3CCN(C(=O)Nc4ccc(CC)cc4)CC3)c(C)o2)cc1 | 8.87% [at 1.35 µM] (inactive) |
| Cc1cccc(OCC(=O)Nc2ccc(-c3nc(-c4ccccc4)co3)cc2)c1C | -18.6% [at 2.6 µM] (inactive) |
| COc1ccc(CNC(=O)CC2N=C3c4ccccc4N=C(SCc4cc(=O)n5ccccc5n4)N3C2=O)cc1 (stereo not given) | 19.7% [at 2.6 µM] (inactive) |
| O=C(Nc1ccc(-c2nc(-c3ccccc3)co2)cc1)c1ccc(F)cc1 | 21.2% [at 1.35 µM] (inactive) |
| N#Cc1ccc(S(=O)(=O)N2CCC(N3CCOCC3)CC2)cc1 | -17.4% [at 0.35 µM] (inactive) |
| COc1cc(OC)c(NC(=O)Nc2ccc(-c3nc(-c4ccc(C)cc4)co3)cc2)cc1Cl | 86.6% (inactive) |
| O=C(Nc1ccc(F)cc1)Nc1ccc(-c2nc(-c3cccc(Br)c3)co2)cc1 | 4.84% [at 10 µM] (inactive) |
| COc1ccc(S(=O)(=O)N2CCC[C@@H]2C(=O)NCCc2csc(C)n2)cc1OC | 10.7% [at 10 µM] (inactive) |
| O=C(Nc1ccc(-c2nc(-c3ccccc3)co2)cc1)c1ccc(Cl)cc1 | 21.8% [at 5 µM] (inactive) |
| COc1ccc(-c2nc3c([nH]2)c(=O)n(C)c(=O)n3C)cc1OC | 40.8% [at 0.35 µM] (inactive) |
| Cc1ccc(C)c(-c2coc(-c3ccc(NC(=O)C4CCCCC4)cc3)n2)c1 | 10.4% [at 10 µM] (inactive) |
| N#Cc1c(N2C[C@@H]3NCCO[C@H]3C2)c(F)cc2c(=O)c(C(=O)O)cn(C3CC3)c12 | 13.7% (inactive) |
